Hi there, I'd appreciate the recorded log10 of GI50 for every entry that follows.
system: A549; test: Cytotoxicity against human A549 cells after 48 hrs by SRB assay; type: functional; conditions: A549, 48 h
Please be aware that the numbers have been log10-transformed from GI50 in nM.

For the compound shown here, `COc1cc(-c2n[nH]nc2-c2cc3ccccc3s2)cc(OC)c1OC` , give the reported log10 of GI50.
1.36

// same read-out, input: `COc1cc(-c2nn(C)nc2-c2cc3ccccc3s2)cc(OC)c1OC`
2.22

// same read-out, input: `COc1ccc(-c2n[nH]nc2-c2csc3ccccc23)cc1OC`
3.66

// same read-out, input: `COc1cc(OC)cc(-c2n[nH]nc2-c2c[nH]c3ccccc23)c1`
1.94

// same read-out, input: `COc1cc(-c2n[nH]nc2-c2c[nH]c3ccccc23)cc(OC)c1OC`
1.95

----------
experiment: Cytotoxicity against human UACC62 cells after 48 hrs by SRB assay; type: functional; settings: UACC-62, 48 h
readout-type: GI50 (nM)
Output spec: scalar in nM, unitless text.

For the molecule shown here, `COc1cc(OC)cc(-c2n[nH]nc2-c2c[nH]c3ccccc23)c1` , give the reported GI50.
34

// same read-out, input: `COc1cc(-c2nn(C)nc2-c2cc3ccccc3s2)cc(OC)c1OC`
53

// same read-out, input: `COc1cc(-c2n[nH]nc2-c2c[nH]c3ccccc23)cc(OC)c1OC`
43

// same read-out, input: `COc1ccc(-c2n[nH]nc2-c2csc3ccccc23)cc1OC`
2770

----------
Hi there, I'd appreciate the recorded GI50 for every entry that follows.
test: Cytotoxicity against human UACC257 cells after 48 hrs by SRB assay; format: functional; details: UACC-257, 48 h

For the compound shown here, `COc1cc(-c2n[nH]nc2-c2cc3ccccc3s2)cc(OC)c1OC` , give the reported GI50.
< 0.01 µM

// same read-out, input: `COc1cc(-c2nn(C)nc2-c2cc3ccccc3s2)cc(OC)c1OC`
51.6 µM

// same read-out, input: `COc1cc(-c2n[nH]nc2-c2c[nH]c3ccccc23)cc(OC)c1OC`
13.9 µM

// same read-out, input: `COc1ccc(-c2n[nH]nc2-c2csc3ccccc23)cc1OC`
10.9 µM

// same read-out, input: `COc1cc(OC)cc(-c2n[nH]nc2-c2c[nH]c3ccccc23)c1`
> 100 µM

----------
test system: T47D; assay: Cytotoxicity against human T47D cells after 48 hrs by SRB assay; assay type: functional
Hi there, I'd appreciate the recorded GI50 for every entry that follows.
Output spec: scalar in µM, unitless text.

For the compound shown here, `COc1ccc(-c2n[nH]nc2-c2csc3ccccc23)cc1OC` , give the reported GI50.
2.83

// same read-out, input: `COc1cc(-c2n[nH]nc2-c2c[nH]c3ccccc23)cc(OC)c1OC`
0.048

// same read-out, input: `COc1cc(OC)cc(-c2n[nH]nc2-c2c[nH]c3ccccc23)c1`
0.044

----------
system: A498; assay: Cytotoxicity against human A498 cells after 48 hrs by SRB assay; format: functional; conditions: A498, 48 h
Hi there, I'd appreciate the recorded GI50 for every entry that follows.
Output spec: scalar in nM, unitless text.

For the molecule shown here, `COc1cc(OC)cc(-c2n[nH]nc2-c2c[nH]c3ccccc23)c1` , give the reported GI50.
33

// same read-out, input: `COc1cc(-c2nn(C)nc2-c2cc3ccccc3s2)cc(OC)c1OC`
41

// same read-out, input: `COc1ccc(-c2n[nH]nc2-c2csc3ccccc23)cc1OC`
2960

// same read-out, input: `COc1cc(-c2n[nH]nc2-c2c[nH]c3ccccc23)cc(OC)c1OC`
35

----------
system: SK-MEL-5; assay: Cytotoxicity against human SK-MEL-5 cells after 48 hrs by SRB assay; type: functional; conditions: SK-MEL-5, 48 h
Hi there, I'd appreciate the recorded GI50 for every entry that follows.
Output spec: scalar in nM, unitless text.

For the compound shown here, `COc1cc(OC)cc(-c2n[nH]nc2-c2c[nH]c3ccccc23)c1` , give the reported GI50.
34

// same read-out, input: `COc1ccc(-c2n[nH]nc2-c2csc3ccccc23)cc1OC`
2830

// same read-out, input: `COc1cc(-c2nn(C)nc2-c2cc3ccccc3s2)cc(OC)c1OC`
225

// same read-out, input: `COc1cc(-c2n[nH]nc2-c2c[nH]c3ccccc23)cc(OC)c1OC`
43

----------
test system: MDA-MB-468; assay: Cytotoxicity against human MDA-MB-468 cells after 48 hrs by SRB assay; assay type: functional; details: MDA-MB-468, 48 h
readout-type: GI50 (µM)
Output spec: scalar in µM, unitless text.

For the molecule shown here, `COc1cc(OC)cc(-c2n[nH]nc2-c2c[nH]c3ccccc23)c1` , give the reported GI50.
0.037

// same read-out, input: `COc1ccc(-c2n[nH]nc2-c2csc3ccccc23)cc1OC`
0.63

// same read-out, input: `COc1cc(-c2nn(C)nc2-c2cc3ccccc3s2)cc(OC)c1OC`
0.082

// same read-out, input: `COc1cc(-c2n[nH]nc2-c2c[nH]c3ccccc23)cc(OC)c1OC`
0.042

----------
test system: SK-MEL-2; assay: Cytotoxicity against human SK-MEL-2 cells after 48 hrs by SRB assay; assay type: functional; conditions: SK-MEL-2, 48 h
Hi there, I'd appreciate the recorded GI50 for every entry that follows.
Output spec: scalar in nM, unitless text.

Query for SK-MEL-2: what GI50 does the record show for `COc1cc(-c2nn(C)nc2-c2cc3ccccc3s2)cc(OC)c1OC` ?
59

// same read-out, input: `COc1cc(-c2n[nH]nc2-c2c[nH]c3ccccc23)cc(OC)c1OC`
30

// same read-out, input: `COc1cc(OC)cc(-c2n[nH]nc2-c2c[nH]c3ccccc23)c1`
31

// same read-out, input: `COc1ccc(-c2n[nH]nc2-c2csc3ccccc23)cc1OC`
1440

----------
Hi there, I'd appreciate the recorded GI50 for every entry that follows.
test system: M14; experiment: Cytotoxicity against human M14 cells after 48 hrs by SRB assay; type: functional; details: M14, 48 h
Output spec: scalar in nM, unitless text.

For the compound shown here, `COc1ccc(-c2n[nH]nc2-c2csc3ccccc23)cc1OC` , give the reported GI50.
1950

// same read-out, input: `COc1cc(-c2nn(C)nc2-c2cc3ccccc3s2)cc(OC)c1OC`
76

// same read-out, input: `COc1cc(OC)cc(-c2n[nH]nc2-c2c[nH]c3ccccc23)c1`
31

// same read-out, input: `COc1cc(-c2n[nH]nc2-c2c[nH]c3ccccc23)cc(OC)c1OC`
36

----------
assay: Cytotoxicity against human HOP92 cells after 48 hrs by SRB assay; type: functional; settings: HOP-92, 48 h
Hi there, I'd appreciate the recorded GI50 for every entry that follows.
Output spec: scalar in nM, unitless text.

For the compound shown here, `COc1cc(OC)cc(-c2n[nH]nc2-c2c[nH]c3ccccc23)c1` , give the reported GI50.
29

// same read-out, input: `COc1cc(-c2nn(C)nc2-c2cc3ccccc3s2)cc(OC)c1OC`
80

// same read-out, input: `COc1ccc(-c2n[nH]nc2-c2csc3ccccc23)cc1OC`
921

----------
Hi there, I'd appreciate the recorded GI50 for every entry that follows.
test: Cytotoxicity against human COLO205 cells after 48 hrs by SRB assay; format: functional; conditions: COLO 205, 48 h
Output spec: scalar in µM, unitless text.

For the compound shown here, `COc1cc(OC)cc(-c2n[nH]nc2-c2c[nH]c3ccccc23)c1` , give the reported GI50.
0.035

// same read-out, input: `COc1ccc(-c2n[nH]nc2-c2csc3ccccc23)cc1OC`
2.82

// same read-out, input: `COc1cc(-c2nn(C)nc2-c2cc3ccccc3s2)cc(OC)c1OC`
0.082

// same read-out, input: `COc1cc(-c2n[nH]nc2-c2c[nH]c3ccccc23)cc(OC)c1OC`
0.034

----------
Hi there, I'd appreciate the recorded GI50 for every entry that follows.
system: MDA-MB-231; assay: Cytotoxicity against human MDA-MB-231 cells after 48 hrs by SRB assay; type: functional; details: MDA-MB-231, 48 h
Output spec: scalar in nM, unitless text.

For the compound shown here, `COc1cc(-c2n[nH]nc2-c2c[nH]c3ccccc23)cc(OC)c1OC` , give the reported GI50.
89

// same read-out, input: `COc1ccc(-c2n[nH]nc2-c2csc3ccccc23)cc1OC`
3210

// same read-out, input: `COc1cc(-c2n[nH]nc2-c2cc3ccccc3s2)cc(OC)c1OC`
14

// same read-out, input: `COc1cc(OC)cc(-c2n[nH]nc2-c2c[nH]c3ccccc23)c1`
76

// same read-out, input: `COc1cc(-c2nn(C)nc2-c2cc3ccccc3s2)cc(OC)c1OC`
1600
